Target: SMYD3 (Homo sapiens, UniProt Q9H7B4)
Test: SMYD3 biochemical assay (MTase-Glo, MAP3K2 peptide substrate)
Assay endpoint: activity against SMYD3

Query string: Param readout= activity against SMYD3; system= SMYD3 (Homo sapiens, UniProt Q9H7B4); entry= NC(=O)C1CCN(CC(=O)Nc2ccc(Br)cc2)CC1 [BCI-121, reference compound] ; returns value.
Result string: inactive

Query string: Same read-out for Cc1cccc(CN2CCC(CNC(=O)c3ccc4c(Cl)c5c(nc4c3)CCCC5)CC2)c1 [X2, reference compound] ?
Result string: not active

Query string: Try NC(=O)C1CCN(CC(=O)Nc2ccc(Br)cc2)CC1 [X1, reference compound] next.
Result string: inactive

Query string: Same for CN1CCC(N2CCN(C(=O)c3ccc4c(Cl)c5c(nc4c3)CCCC5)CC2)CC1 [X3, reference compound]
Result string: not active

---

Biological target: SMYD3 (Homo sapiens)
Assay: SMYD3 biochemical assay (MTase-Glo, MAP3K2 peptide substrate)
Conditions: Table 3; MTase assay, MAP3K2 peptide substrate; read-out: IC50
pIC50: −log10 of the molar value.
Assay endpoint: pIC50

Query string: Looking for the measured pIC50 of CCCOC(=O)N1CCN(C(=O)c2ccc3c(Cl)cc(-c4ccc(C(C)(C)O)c(F)c4)nc3c2)C[C@H]1C , can you help?
Result string: 6.77

[a] CCCOC(=O)N1CCN(C(=O)c2ccc3c(Cl)cc(-c4ccc(O)c(F)c4)nc3c2)CC1
[b] CCCOC(=O)N1CCN(C(=O)c2ccc3c(Cl)cc(-c4ccc(F)c(C(=O)N(C)C)c4)nc3c2)CC1
[c] CCCOC(=O)N1CCN(C(=O)c2ccc3c(Cl)cc(-c4ccc(O)c(OCC)c4)nc3c2)CC1
Query string: Please rank these compounds by pIC50 in descending order. The response must list the labels following the requested ordering.
Result string: a, c, b

---

Target: SMYD3 (Homo sapiens)
Sequence (Q9H7B4 1-428): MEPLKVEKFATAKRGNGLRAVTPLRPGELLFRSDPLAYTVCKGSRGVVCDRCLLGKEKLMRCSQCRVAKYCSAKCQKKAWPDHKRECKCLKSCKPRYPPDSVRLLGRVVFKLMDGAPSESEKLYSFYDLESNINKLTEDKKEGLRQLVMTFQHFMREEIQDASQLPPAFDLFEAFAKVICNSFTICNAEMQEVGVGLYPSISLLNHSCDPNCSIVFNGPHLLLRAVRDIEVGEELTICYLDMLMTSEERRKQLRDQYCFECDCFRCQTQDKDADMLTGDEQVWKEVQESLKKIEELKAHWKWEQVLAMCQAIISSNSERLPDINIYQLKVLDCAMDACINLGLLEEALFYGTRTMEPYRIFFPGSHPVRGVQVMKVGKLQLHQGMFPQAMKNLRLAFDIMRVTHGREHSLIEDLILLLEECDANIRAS
Test: SMYD3 biochemical assay (MTase-Glo, MAP3K2 peptide substrate)
Conditions: Table 3; MTase assay, MAP3K2 peptide substrate; read-out: IC50
Assay endpoint: IC50 (nM)

Query string: Item CNC(=O)c1ccc(-c2cc(Cl)c3ccc(C(=O)N4CCN(C(=O)OCCF)CC4)cc3n2)cc1 with SMYD3 (Homo sapiens) - IC50?
Result string: 7400

Query string: Proceed to C=CCC1CCc2c(nc3cc(C(=O)N4CCN(C(=O)OCCC)CC4)ccc3c2Cl)C1 (centres unmarked)
Result string: 600

Query string: And for CCCOC(=O)N1CCN(C(=O)c2ccc3c(Cl)cc(-c4ccc(C(=O)NC)cc4)nc3c2)CC1 ?
Result string: 250

Query string: // next record CCCOC(=O)N1CCN(C(=O)c2ccc3c(Cl)cc(-c4cnn(C)c4)nc3c2)CC1
Result string: 250

Query string: And then CCCOC(=O)N1CCN(C(=O)c2ccc3c(Cl)cc(-c4ccc5[nH]nc(C)c5c4)nc3c2)C[C@H]1C , what is it?
Result string: 100

[I] CCCOC(=O)N1CCN(C(=O)c2ccc3c(Cl)cc(-c4ccc(O)c(C)c4)nc3c2)CC1
[II] CCCOC(=O)N1CCN(C(=O)c2ccc3c(Cl)c4c(nc3c2)CC(c2ncccc2F)CC4)[C@@H](C)C1 (some centres unmarked)
[III] CCCOC(=O)N1CCN(C(=O)c2ccc3c(Cl)cc(-c4ccc(C(=O)O)c(C)c4)nc3c2)CC1
[IV] CCCOC(=O)N1CCN(C(=O)c2ccc3c(Cl)cc(-c4ccc(C(=O)OC)nc4)nc3c2)C[C@H]1C
Query string: // ranking: key=IC50, reverse=True Could you list the labels in the order requested?
Result string: III, IV, II, I
(III: 3600 nM, IV: 930 nM, II: 570 nM, I: 120 nM)
